Measured TGI values are reported for all entries that follow.
tested on: A498 renal; assay: NCI tumour cell line growth inhibition, 48 h

Guide cases for TGI, answers given:
>  <compound>
Nc1ncnc2c1ncn2Cc1ccc(CCl)cc1

>  <TGI>
31.9 µM

$$$$
>  <compound>
C/C(COc1ccccc1)=N\NC(N)=S

>  <TGI>
> 100 µM

$$$$
>  <compound>
CN1CCN(CCCn2c3c(sc4ncccc43)c(=O)n3nnc(-c4ccccc4)c23)CC1

>  <TGI>
21.3 µM

$$$$
>  <compound>
CCN1C(=O)N(CC)C2C1NN=c1s/c(=C\c3ccc(Br)cc3)c(=O)n12 (stereo unspecified)

>  <TGI>
> 100 µM

$$$$
>  <compound>
CCOC(=O)C(NS(=O)(=O)c1ccccc1)(C(F)(F)F)P(=O)(OCC(C)C)OCC(C)C (stereo unspecified)

>  <TGI>
> 100 µM

$$$$

Alright, here's another compound for you.
compound CCOC(=O)/C(C(N)=O)=C(/O)c1cnccn1 , TGI observed: > 100 µM

* * *

tested on: NCI/ADR-RES ovarian; assay: NCI tumour cell line growth inhibition, 48 h
Items are presented alongside their recorded TGI.
Report as a plain number; the unit µM is understood.

>  <molecule>
C[C@H]1O[C@@H](O[C@H]2[C@@H](O)C[C@H](O[C@H]3[C@@H](O)C[C@H](O[C@H]4CC[C@]5(C)C6CC[C@]7(C)[C@@H](C8=CC(=O)OC8)CC[C@]7(O)C6CC[C@@H]5C4)O[C@@H]3C)O[C@@H]2C)C[C@H](O)[C@@H]1O (some centres undefined)

>  <unit spec>
µM

>  <TGI>
0.0435

$$$$

// TGI (NCI/ADR-RES ovarian) for Cc1ccc2c(c1)n([O-])c(C(F)(F)F)c(C(=O)c1ccco1)[n+]2=O = 3.55

* * *

system: LOX IMVI melanoma; assay: NCI tumour cell line growth inhibition, 48 h; in the data active = GI50 below about 0.43 µM; inactive = the rest
Allowed answers: active, inactive

>  <compound>
Cc1c(-c2c(F)cc(C(N)=O)c3[nH]c4c(c23)CC[C@H](C(C)(C)O)C4)cccc1-n1c(=O)c2cccc(F)c2n(C)c1=O

>  <qualitative label>
inactive

$$$$

Which result was noted for this compound in the test: O=C(O)[C@@H](Cc1ccccc1)NS(=O)(=O)c1ccc(-c2ccccc2)cc1
inactive

# lookup: test call for COc1cc(-c2cc(-c3ccc(Nc4nc(Nc5ccc(Cl)cc5)nc(Nc5ccc(Cl)cc5)n4)cc3)no2)cc(OC)c1OC
inactive

Field: outcome | Entry: Fc1ccc(Nc2ccnc(N3CCN(c4ccnc5cc(Cl)ccc45)CC3)n2)cc1
inactive

Please indicate how the test categorized C=C1C(=O)O[C@H]2[C@H]1CC/C(COC(=O)NCCc1ccc(Br)cc1)=C\CC[C@@]1(C)O[C@@H]21 .
inactive

Hi, do you know how C#Cc1cccc(NC(=O)C2CCCCN2C(=O)CCl)c1 (centres undefined) came out in this test?
inactive

* * *

system: SNB-75 CNS; assay: NCI tumour cell line growth inhibition, 48 h; in the data active = GI50 below about 0.43 µM; inactive = the rest
Pick one and only one: active, inactive

Some solved entries appear below for comparison.
>  <compound>
Cc1cccc(Nc2ncc(-c3ccccc3)o2)c1

>  <qualitative label>
inactive

$$$$
>  <compound>
Clc1ccc(Nc2nnc(COc3ccccc3)c3ccccc23)cc1

>  <qualitative label>
inactive

$$$$
>  <compound>
c1ccc2c(c1)CCCc1nnc3nc4ccccc4n3c1-2

>  <qualitative label>
inactive

$$$$
>  <compound>
CN1CCN(CCCn2c3c(sc4ncccc43)c(=O)n3nnc(-c4ccccc4)c23)CC1

>  <qualitative label>
inactive

$$$$
>  <compound>
COc1cc(/C=C/[N+](=O)[O-])cc(OC)c1

>  <qualitative label>
inactive

$$$$
>  <compound>
Nc1nc(N)c2c(n1)NC(c1ccc(Cl)cc1)C1CCc3ccccc3C1=N2 (centres undefined)

>  <qualitative label>
inactive

$$$$

Recorded call for COc1ccc(CNCCN2C(=O)c3ccc4c5c(ccc(c35)C2=O)C(=O)N(CCNCc2ccc(OC)c(OC)c2OC)C4=O)c(OC)c1OC ?
inactive

Could you kindly confirm the outcome this assay logged for CC1(/C=C/c2ccc(-c3ccccc3)cc2)CCn2cnc3ncnc(c32)N1O (centres undefined) ?
active
